# maps each entry to its T/C
tested on: BDF1 mice, B16 melanoma ip, median survival T/C; assay: NCI In Vivo Anticancer Drug Screen. Data for tumor model B16 Melanoma (intraperitoneal) in B6D2F1 (BDF1) mice; details: endpoint: median survival time; dose: 3.75 mg/kg/injection; schedule: Q01DX009 (ip); vehicle: saline; higher = longer survival
Inconclusive results and toxic doses are left out.
ATTRIBUTE MEASURED: T/C

[[record]]
molecule = "COC(=O)c1[nH]cnc1/N=N/N(C)C"
system = "BDF1 mice, B16 melanoma ip, median survival T/C"
endpoint_result = "121 % of control"

[[record]]
molecule = "C[n+]1ccc(C#N)c2ccccc21"
system = "BDF1 mice, B16 melanoma ip, median survival T/C"
endpoint_result = "102 % of control"

[[record]]
molecule = "CNC(C)Cc1ccccc1 (stereo not given)"
system = "BDF1 mice, B16 melanoma ip, median survival T/C"
endpoint_result = "95 % of control"

[[record]]
molecule = "CN1CCC23c4ccccc4NC1C21CCN(C)C3Nc2ccccc21"
system = "BDF1 mice, B16 melanoma ip, median survival T/C"
endpoint_result = "107 % of control"

[[record]]
molecule = "CN(C)NCCN1CCN(CCCN2c3ccccc3Sc3ccc(C(F)(F)F)cc32)CC1"
system = "BDF1 mice, B16 melanoma ip, median survival T/C"
endpoint_result = "93 % of control"


----------
System: BDF1 mice, B16 melanoma ip, median survival T/C
Assay: NCI In Vivo Anticancer Drug Screen. Data for tumor model B16 Melanoma (intraperitoneal) in B6D2F1 (BDF1) mice
Conditions: endpoint: median survival time; dose: 50.0 mg/kg/injection; schedule: Q01DX009 (ip); vehicle: saline with Tween-80; higher = longer survival
Procedure: The antitumor activity of compounds was measured in mice bearing transplantable tumors. Survival or tumor size were measured and the results are expressed as the measurement made in the treated group (T) divided by the measurement made in the vehicle treated control group (C). The tumor model used in this assay is B16 Melanoma (intraperitoneal) in B6D2F1 (BDF1) mice
Toxic doses and inconclusive results are not listed. Peptide text beside a SMILES is read from it. * marks the point of attachment. Cbz = O=C(OCc1ccccc1)*
The following compounds are shown together with reported T/C values.
ATTRIBUTE MEASURED: T/C

[[record]]
compound = "CCCCNc1cc(Nc2ccc(Br)cc2)nc(N)n1"
endpoint_result = "95 % of control"

[[record]]
compound = "O=C(NC(Cc1ccc(O)cc1)C(=O)O)c1ccccc1 (stereo not drawn)"
endpoint_result = "105 % of control"

[[record]]
compound = "CC(=O)N\\C(N)=N/N=C\\C(C)=N/N=C(\\N)NC(C)=O"
endpoint_result = "108 % of control"

[[record]]
compound = "O=S(=O)(O)C1CCC[N-]C1.O=S(=O)(O)C1CCC[N-]C1.[Cl][Pt+2]([Cl])([Cl])[Cl] (stereo not drawn)"
endpoint_result = "106 % of control"

[[record]]
compound = "Nc1nccnc1N"
endpoint_result = "102 % of control"

[[record]]
compound = "CC(C)(C)OC(=O)n1cnc(CC(NC(=O)OCc2ccccc2)C(=O)O)c1 (stereo not drawn)"
endpoint_result = "98 % of control"

[[record]]
compound = "Cc1nnc(NC(=O)CCl)s1"
endpoint_result = "105 % of control"

[[record]]
compound = "CC1(C)N=C(N)N=C(N)N1c1ccc(OCCCCNC(=O)c2ccc(S(=O)(=O)F)cc2)c(Cl)c1"
endpoint_result = "111 % of control"

[[record]]
compound = "Cc1ccc(Cl)cc1NC(=O)COc1ccc(Cl)cc1"
endpoint_result = "91 % of control"

[[record]]
compound = "CC(c1ccccc1)N1C(=O)CSC1=S (stereo not drawn)"
endpoint_result = "94 % of control"

[[record]]
compound = "C=CC1CN2CCC1CC2C(O)c1ccnc2ccc(OC)cc12 (stereo not drawn) (tested in a mixture with another compound)"
endpoint_result = "107 % of control"

[[record]]
compound = "CN(C)CCOc1ccc2c(c1)C/C(=C/c1ncc([N+](=O)[O-])n1C)C2=O"
endpoint_result = "99 % of control"

[[record]]
compound = "Ic1ccccc1C[N+]12CN3CN(CN(C3)C1)C2"
endpoint_result = "97 % of control"

[[record]]
compound = "Cc1noc2nccnc12"
endpoint_result = "88 % of control"

[[record]]
compound = "CC(C)CC(Br)C(=O)NC(CC(C)C)C(=O)O (stereo not drawn)"
endpoint_result = "100 % of control"

[[record]]
compound = "Cc1c(Cl)cccc1NC(=O)COc1ccc(Cl)cc1"
endpoint_result = "88 % of control"

[[record]]
compound = "CCOC(=O)c1[nH]c(C#N)c(C(=O)OCC)c1C"
endpoint_result = "95 % of control"

[[record]]
compound = "O=C(NC(Cc1ccccc1)C(=O)NC(CO)C(=O)O)OCc1ccccc1 (stereo not drawn) (Cbz-Phe-Ser-OH; configuration not given here)"
endpoint_result = "95 % of control"

[[record]]
compound = "CCOC(=O)C(CC)(CCC(C)C)C(=O)OCC"
endpoint_result = "99 % of control"

[[record]]
compound = "Clc1ccc2c(c1)/C(=C/c1cccnc1)c1cc(Cl)cc(Cl)c1-2"
endpoint_result = "86 % of control"

[[record]]
compound = "CC(C)(C)OC(=O)NC(Cc1ccc(OCc2ccccc2)cc1)C(=O)O (stereo not drawn)"
endpoint_result = "95 % of control"

[[record]]
compound = "CC1(C)C=C(C(Br)c2ccc(Cl)cc2)C(=O)c2ccccc21 (stereo not drawn)"
endpoint_result = "103 % of control"

[[record]]
compound = "CC(C)N(C(=O)c1ccc(C(=O)N(c2ccccc2)C(C)C)cc1)c1ccccc1"
endpoint_result = "99 % of control"

[[record]]
compound = "CCC(C)(CC)OC(N)=O"
endpoint_result = "112 % of control"

[[record]]
compound = "CSc1nc(NC(C)C)nc(NC(C)C)n1"
endpoint_result = "92 % of control"

[[record]]
compound = "O=S(=O)(O)c1ccc2cccc(N=Nc3c(O)ccc4ccccc34)c2c1"
endpoint_result = "91 % of control"

[[record]]
compound = "CCOC(=O)C(C)(Br)C(=O)OCC"
endpoint_result = "102 % of control"

[[record]]
compound = "O=S(=O)(O)C(O)c1cccnc1 (stereo not drawn)"
endpoint_result = "89 % of control"

[[record]]
compound = "CNC(=O)n1c(N)nc(-c2ccccc2)c1-c1ccccc1"
endpoint_result = "107 % of control"

[[record]]
compound = "CN1NCc2cncnc21"
endpoint_result = "107 % of control"

[[record]]
compound = "CCC1CN1P(=O)(N(CC)CC)N1CC1CC (stereo not drawn)"
endpoint_result = "113 % of control"

[[record]]
compound = "CCOC(=O)N1CCc2nc3ccc(Cl)cc3cc21"
endpoint_result = "111 % of control"

[[record]]
compound = "CN1C(=O)CC2(CCN(CCCC(=O)c3ccc(F)cc3)CC2)C1=O"
endpoint_result = "95 % of control"

[[record]]
compound = "BrC[P+](CBr)(CBr)CBr"
endpoint_result = "104 % of control"

[[record]]
compound = "Cc1[nH]c(N)nc(=S)c1CCC(=O)Nc1ccc(C(=O)NC(CCC(=O)O)C(=O)O)cc1 (stereo not drawn)"
endpoint_result = "101 % of control"

[[record]]
compound = "Cc1c(Cl)cccc1NS(=O)(=O)c1cccc([N+](=O)[O-])c1"
endpoint_result = "100 % of control"

[[record]]
compound = "O=C(CC(=O)C(F)(F)F)c1csc2ccccc12"
endpoint_result = "114 % of control"

[[record]]
compound = "Cc1ccc(C(C)(N=[N+]=[N-])c2ccccc2)cc1C (stereo not drawn)"
endpoint_result = "93 % of control"

[[record]]
compound = "O=[N+]([O-])c1ccccc1O"
endpoint_result = "100 % of control"

[[record]]
compound = "CC(=O)c1ccc2ccccc2c1O"
endpoint_result = "106 % of control"

[[record]]
compound = "CC(NC(=O)C(Cc1ccc(O)cc1)NC(=O)C(C)NC(=O)OCc1ccccc1)C(=O)O (stereo not drawn) (Cbz-Ala-Tyr-Ala-OH; configuration not given here)"
endpoint_result = "98 % of control"

[[record]]
compound = "Cc1cnnc2ccccc12"
endpoint_result = "95 % of control"

[[record]]
compound = "COc1ccc(Cl)cc1NC(=O)C(Br)C(Br)C(=O)O (stereo not drawn)"
endpoint_result = "95 % of control"

[[record]]
compound = "CN(C)c1c(-c2ccccc2)cc(-c2ccccc2)[nH]c1=O"
endpoint_result = "92 % of control"

[[record]]
compound = "CO[C@@H](C=O)O[C@@H](C=O)CO"
endpoint_result = "124 % of control"

[[record]]
compound = "CCNNC(=O)[C@@H]1[C@H](c2cc(OC)c(OC)c(OC)c2)c2cc3c(cc2[C@H](O)[C@H]1CO)OCO3"
endpoint_result = "94 % of control"

[[record]]
compound = "Cc1ccc(NC(=O)c2ccc(C(=O)Nc3ccc(C)cc3)cc2)cc1"
endpoint_result = "100 % of control"

[[record]]
compound = "O=C(CCl)Oc1cccc([N+](=O)[O-])c1"
endpoint_result = "102 % of control"

